// data source = ChEMBL document CHEMBL1772942

System: A549
Assay: Cytotoxicity against human A549 cells assessed as cell growth inhibition at 10 uM after 48 hrs by sulforhodamine B assay
Assay type: functional
Conditions: A549, 48 h, read-out: GI
Below, each of the compounds is paired with its reported inhibition of growth at 10 µM value.
Kindly report the value followed by its unit.

// worked examples, inhibition of growth at 10 µM included
O=C1C(=O)N(CCCCCN2C(=O)c3ccccc3C2=O)c2ccccc21 4%
O=C1C(=O)N(CCCCCBr)c2ccccc21 0%
O=C1C(=O)N(CCN2C(=O)c3ccccc3C2=O)c2ccccc21 18%
O=C1C(=O)N(CCCBr)c2ccccc21 0%
O=C1C(=O)N(CCCCBr)c2ccccc21 30%

Form: compound = O=C1C(=O)N(CCCCCCBr)c2ccccc21 ; inhibition of growth at 10 µM = 0%

Form: compound = O=C1C(=O)N(CCCCN2C(=O)c3ccccc3C2=O)c2ccccc21 ; inhibition of growth at 10 µM = 0%

Form: compound = O=C1C(=O)N(CCBr)c2ccccc21 ; inhibition of growth at 10 µM = 38%

Form: compound = O=C1C(=O)N(CCCCCCN2C(=O)c3ccccc3C2=O)c2ccccc21 ; inhibition of growth at 10 µM = 0%

Form: compound = O=C1C(=O)N(CCCN2C(=O)c3ccccc3C2=O)c2ccccc21 ; inhibition of growth at 10 µM = 0%
